# SUBJECT OF TEST: UniProt:Q06187
# Sequence (Q06187 whole entry): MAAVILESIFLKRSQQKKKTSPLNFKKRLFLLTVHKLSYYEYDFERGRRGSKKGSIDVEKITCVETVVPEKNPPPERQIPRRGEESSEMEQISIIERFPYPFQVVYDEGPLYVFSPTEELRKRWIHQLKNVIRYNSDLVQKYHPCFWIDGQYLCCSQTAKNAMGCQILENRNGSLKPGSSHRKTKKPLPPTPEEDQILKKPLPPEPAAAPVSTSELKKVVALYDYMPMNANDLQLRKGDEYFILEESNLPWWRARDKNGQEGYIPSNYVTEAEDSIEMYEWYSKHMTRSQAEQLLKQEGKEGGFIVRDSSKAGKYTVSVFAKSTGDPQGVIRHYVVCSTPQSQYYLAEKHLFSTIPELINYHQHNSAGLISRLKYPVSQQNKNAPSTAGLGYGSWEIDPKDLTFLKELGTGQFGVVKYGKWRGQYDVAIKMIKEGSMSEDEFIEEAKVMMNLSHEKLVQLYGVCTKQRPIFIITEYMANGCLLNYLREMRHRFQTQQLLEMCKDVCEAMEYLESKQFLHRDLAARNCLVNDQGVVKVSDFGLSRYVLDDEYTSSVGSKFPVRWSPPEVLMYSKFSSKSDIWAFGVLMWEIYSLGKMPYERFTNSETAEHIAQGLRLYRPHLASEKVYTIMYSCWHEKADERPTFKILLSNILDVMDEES
# RUN DESCRIPTION: In Vitro PD Assay in Human Whole Blood (pBTK assay)
# Type: cell-based
# RUN PARAMETERS: 37° C. for 30 min, 50% inhibition of ECL signal
The entries below come with measured IC50 values attached.

Consider the reported IC50 for these molecules:
>  <MOLECULE>
Cc1c(CNC(=O)c2noc(C(C)(C)C)n2)ccc(-c2cc(NC(=O)C3CC3)ncc2F)c1F [Compound 57]

>  <MEASURED PARAMETER>
IC50

>  <RESULT>
500 to 10000 nM

$$$$
>  <MOLECULE>
Cc1cc(-c2ccnc(NC(=O)C3CC3)c2)c(F)cc1CNC(=O)c1noc(C(C)(C)C)n1 [Compound 13]

>  <MEASURED PARAMETER>
IC50

>  <RESULT>
≤ 100 nM

$$$$
>  <MOLECULE>
Cc1cc(-c2ccnc(NC(=O)C3CC3)c2)ccc1[C@@H](C)NC(=O)c1nc(C(C)(C)C)no1 [Compound 93]

>  <MEASURED PARAMETER>
IC50

>  <RESULT>
100 to 500 nM

$$$$

// next item, IC50 requested
Exercise: Indicate its recorded IC50; the molecule in question is CC(C)(C)c1nc(C(=O)NCc2ccc(-c3ccnc(NC(=O)C4CC4)c3)cc2C(F)(F)F)no1 [Compound 16]
Key: 100 to 500 nM
